Attribution: BindingDB's records for patent US20250313563

SUBJECT_OF_TEST: Glycogen synthase kinase-3 beta (Homo sapiens)
RECORDED_METRIC: IC50

> print(dat)
                                   compound                           subject.of.test  recorded.metric          result
1  CC1(C)CC2=C(C(=O)C1F)[C@]1(CC[C@@H](C(F)(F)F)CC1)C1=CN=NC1N2 (some centres not stated)  Glycogen synthase kinase-3 beta (Homo sapiens)             IC50  100 to 1000 nM

Name the reported IC50 value associated with the compound CCC1(c2cccc(Br)c2)C2=C(CC(C)(C)CC2=O)NC2N=NC(C(F)(F)F)=C21 (configuration not stated)
< 100 nM

Name the reported IC50 value associated with the compound `CC1(C)CC2=C(C(=O)[C@H]1F)C1(CCOCC1)C1=C(N=NC1)N2`
1000 to 5000 nM

Name the reported IC50 value associated with the compound COc1cccc(C2(C)C3=C(N=NC3)NC3=C2C(=O)CC(C)(C)C3)c1 (configuration not stated)
100 to 1000 nM

Name the reported IC50 value associated with the compound CC[C@]1(c2cccc(Br)c2)C2=C(C[C@@H](C)CC2=O)NC2N=NC(C(F)(F)F)=C21 (some centres not stated)
< 100 nM

Name the reported IC50 value associated with the compound CC[C@@]1(c2cccc(-c3ccnc(C)c3)c2)C2=CN=NC2NC2=C1C(=O)CC(C)(C)[C@H]2F (some centres not stated)
100 to 1000 nM

Name the reported IC50 value associated with the compound `C[C@]1(c2ccccc2)C2=C(N=NC2)NC2=C1C(=O)CC1(CCCC1)C2`
100 to 1000 nM

###

Quick record of IC50 values for UniProtKB P49841.

Please review the entries below; each comes with its answer.
> print(dat)
                                   compound     result
1  CCC1(c2cccc(-c3cn(C)nc3C)c2)C2=CN=NC2NC2=C1C(=O)CC(C)(C)C2 (stereo not drawn)   < 0.1 µM
2  CC[C@@]1(c2cccc(N(C)c3ncccn3)c2)C2=C(CC(C)(C)NC2=O)NC2N=NC(Cl)=C21 (stereo partly drawn)  1 to 5 µM

API: the following record is the query input.
Name the reported IC50 value associated with the compound CC[C@]1(c2cccc(-c3cn(C)nc3C)c2)C2=C(CC(C)(C)NC2=O)NC2N=NC(C(F)(F)F)=C21 (stereo partly drawn)
> 5 µM

###

Quick record of IC50 values for Glycogen synthase kinase-3 beta (Homo sapiens, UniProt P49841).

Please review the entries below; each comes with its answer.
COMPOUND	RESULT
CC[C@]1(c2cccc(C3=C4CC=CC(Cl)=C4N=CC3)c2)C2=CN=NC2NC2=C1C(=O)NC(C)(C)C2 (stereo partly specified) [US20250313563, Compound 948650]	> 5 µM
CC[C@@]1(c2cccc(OC)c2)C2=C(CC(C)(C)NC2=O)NC2N=NC(C)=C21 (stereo partly specified) [US20250313563, Compound 949337]	1 to 5 µM
CC1(C)CC(=O)C2=C(C1)NC1=C(CN=N1)[C@]21COC2(CN(S(C)(=O)=O)C2)C1 [US20250313563, Compound 926823]	1 to 5 µM
CCN(c1cccnc1)c1cccc(C2(CC)C3=CN=NC3NC3=C2C(=O)CC(C)(C)C3)c1 (stereo unspecified) [US20250313563, Compound 885331]	< 0.1 µM
CC1(C)CC(=O)C2=C(C1)NC1N=NC(C3(C(F)(F)F)CC3)=C1[C@]21CCc2c(F)cccc21 (stereo partly specified) [US20250313563, Compound 816840]	0.1 to 1 µM

Param readout = IC50; param system = Glycogen synthase kinase-3 beta (Homo sapiens, UniProt P49841); param query = CC[C@@]1(c2cccc(Cc3ncccc3C(F)(F)F)c2)C2=CN=NC2NC2=C1C(=O)CC(C)(C)C2 (stereo partly specified) [US20250313563, Compound 947665] ; response: value
Sequence (P49841 whole entry): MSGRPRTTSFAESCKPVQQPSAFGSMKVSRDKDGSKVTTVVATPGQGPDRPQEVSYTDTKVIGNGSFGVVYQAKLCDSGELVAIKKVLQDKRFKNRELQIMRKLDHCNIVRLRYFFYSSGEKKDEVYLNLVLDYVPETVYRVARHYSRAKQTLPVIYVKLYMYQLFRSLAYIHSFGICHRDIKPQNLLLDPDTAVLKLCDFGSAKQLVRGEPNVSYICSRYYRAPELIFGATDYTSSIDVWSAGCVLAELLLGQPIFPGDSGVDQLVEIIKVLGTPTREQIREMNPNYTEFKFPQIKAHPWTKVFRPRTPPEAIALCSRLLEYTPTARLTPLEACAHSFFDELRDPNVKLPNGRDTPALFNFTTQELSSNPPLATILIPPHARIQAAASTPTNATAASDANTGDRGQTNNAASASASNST
> 5 µM

###

Quick record of IC50 values for Glycogen synthase kinase-3 beta (Homo sapiens).

> print(dat)
                                   compound  recorded.metric           result
1  CCC1(c2cccc(-c3cc(C)ncn3)c2)C2=CN=NC2NC2=C1C(=O)CC(C)(C)C2 (centres undefined)             IC50   100 to 1000 nM
2  CCC1(c2cccc(N3CC4CCC(C4)C3)c2)C2=CN=NC2NC2=C1C(=O)CC(C)(C)C2 (centres undefined)             IC50  1000 to 5000 nM
3  CC1(C)CC(=O)C2=C(C1)NC1=C(CN=N1)C2(C)CCc1ccccc1 (centres undefined)             IC50        > 5000 nM

API: the following record is the query input.
Param readout = IC50; param system = Glycogen synthase kinase-3 beta (Homo sapiens); param query = `CC[C@]1(c2cccc(C(F)(F)F)c2)C2=C(N=NC2)NC2=C1C(=O)N(C)[C@H]2C` ; response: value
100 to 1000 nM

###

In this section we review reported IC50 values for a set of compounds.
SUBJECT_OF_TEST: Glycogen synthase kinase-3 alpha (Homo sapiens)
Sequence (P49840 whole entry): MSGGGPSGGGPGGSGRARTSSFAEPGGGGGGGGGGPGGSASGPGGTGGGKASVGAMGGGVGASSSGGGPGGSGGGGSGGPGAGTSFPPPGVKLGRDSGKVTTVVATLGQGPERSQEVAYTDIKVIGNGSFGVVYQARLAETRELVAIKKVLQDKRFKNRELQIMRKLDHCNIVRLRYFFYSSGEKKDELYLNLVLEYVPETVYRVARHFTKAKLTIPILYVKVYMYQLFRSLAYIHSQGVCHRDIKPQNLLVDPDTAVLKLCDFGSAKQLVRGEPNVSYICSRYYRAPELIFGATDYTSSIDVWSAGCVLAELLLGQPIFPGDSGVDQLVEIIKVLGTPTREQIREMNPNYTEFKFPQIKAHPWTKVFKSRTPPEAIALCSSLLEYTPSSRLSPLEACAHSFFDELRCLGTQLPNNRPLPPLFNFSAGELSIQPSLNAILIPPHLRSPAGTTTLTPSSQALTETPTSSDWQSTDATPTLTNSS

Please review the entries below; each comes with its answer.
> print(dat)
                                   compound  recorded.metric          result
1  CC[C@@]1(c2ccccc2)C2=CN=NC2NC2=C1C(=O)[C@H](F)C(C)(C)C2 (some centres not stated) [US20250313563, Compound 826766]             IC50  100 to 1000 nM
2  CC[C@@]1(c2cccc(N(C)C(=O)c3ccn(C)n3)c2)C2=CN=NC2NC2=C1C(=O)CC(C)(C)C2 (some centres not stated)             IC50        < 100 nM
3  CC[C@@]1(c2cccc(N3CCC3)c2)C2=CN=NC2NC2=C1C(=O)CC(C)(C)C2 (some centres not stated)             IC50       > 5000 nM
4  CC1(C)CC(=O)C2=C(C1)NC1=C(CN=N1)[C@@]21COC2(CN(C(=O)[C@@H]3CC3(F)F)C2)C1             IC50  100 to 1000 nM
5  CC[C@@]1(c2cccc(N(C)C(=O)c3cnn(C)c3)c2)C2=CN=NC2NC2=C1C(=O)CC(C)(C)C2 (some centres not stated)             IC50        < 100 nM

Name the reported IC50 value associated with the compound `O=C1C[C@@]2(CCOC2)CC2=C1C1(CCOCC1)C1=C(N=NC1)N2`
100 to 1000 nM

Name the reported IC50 value associated with the compound `CC1(C)CC(=O)C2=C(NC3=C(CN=N3)C23CCOCC3)[C@@H]1F`
100 to 1000 nM

###

In this section we review reported IC50 values for a set of molecules.
SUBJECT_OF_TEST: UniProt P49841

> print(dat)
                                   molecule  recorded.metric          result
1  Cn1ccc(S(=O)(=O)N2CCC3(CC2)C2=C(N=NC2)NC2=C3C(=O)CC(C)(C)[C@@H]2F)n1             IC50  100 to 1000 nM
2  CC[C@]1(c2cccc(S(=O)(=O)C3CC3)c2)C2=C(CC(C)(C)CC2=O)NC2N=NC(C(F)(F)F)=C21 (stereo partly drawn)             IC50        < 100 nM

API: the following record is the query input.
Name the reported IC50 value associated with the molecule CC[C@@]1(c2cccc(C(F)F)c2)C2=C(CC(C)(C)NC2=O)NC2N=NC(C(F)(F)F)=C21 (stereo partly drawn)
100 to 1000 nM

###

Quick record of IC50 values for Glycogen synthase kinase-3 alpha (Homo sapiens).

Please review the entries below; each comes with its answer.
> print(dat)
                                   compound  recorded.metric          result
1  C[C@@H]1CCC[C@@]2(C1)C1=C(N=NC1)NC1=C2C(=O)CC(C)(C)C1             IC50        < 100 nM
2  CC1(C)CC(=O)C2=C(C1)NC1=C(CN=N1)[C@]21CCN(S(=O)(=O)c2cccc(F)c2)C1             IC50  100 to 1000 nM
3  CCC1(c2cccc(-c3cnn(C)c3)c2)C2=C(CC(C)(C)CC2=O)NC2N=NC(C(F)(F)F)=C21 (stereo unspecified)             IC50        < 100 nM
4  CCC1(c2cccc(-c3cc(C)ncc3F)c2)C2=C(CC(C)(C)NC2=O)NC2N=NC(C)=C21 (stereo unspecified)             IC50        < 100 nM
5  CC[C@@]1(c2cccc(N3CCOCC3)c2)C2=CN=NC2NC2=C1C(=O)CC(C)(C)C2 (stereo partly specified)             IC50  100 to 1000 nM

API: the following record is the query input.
Name the reported IC50 value associated with the compound `CC[C@@]1(c2cccc(C(F)(F)F)c2)C2=C(N=NC2)NC2=C1C(=O)N[C@H]2C`
> 5000 nM
